# Species on record: Cavia porcellus
# assay.name: Inhibition of spontaneous tone in guinea pig tracheal spirals
# Format: functional, Trachea
# condition.notes: Cavia porcellus, Trachea
reported.property: IC50 (nM)

COc1ccc(NC(=O)C2=C(O)C(C)(C)Oc3ccc(C#N)cc32)cc1 ... 1200
CC(=O)OC1=C(C(=O)N(C(C)=O)c2ccccc2)c2cc(C#N)ccc2OC1(C)C ... 1350
CC1(C)Oc2ccc(C#N)cc2C(c2nc3ccccc3s2)=C1O ... 1360

P: CC1(C)C=C(C(=O)Nc2ccccc2)c2cc(C#N)ccc2O1
Q: CC1(C)Oc2ccc(C#N)cc2C(/C(S)=N/c2ccccc2)=C1O
R: COc1ccc(NC(=S)C2=C(O)C(C)(C)Oc3ccc(C#N)cc32)cc1
Challenge: # rank by IC50, ascending (min first) Write out the labels following the order that was asked for.
Response given: Q, P, R
